- TEST TARGET: IκBα-kinase complex (Homo sapiens, UniProt O14920+O15111)
- Construct: endogenous in cells; host or cells: HeLa S3 cell extract, S100 fraction; ammonium sulfate precipitation and Superose-6 size exclusion
- Sequence (O14920 whole entry): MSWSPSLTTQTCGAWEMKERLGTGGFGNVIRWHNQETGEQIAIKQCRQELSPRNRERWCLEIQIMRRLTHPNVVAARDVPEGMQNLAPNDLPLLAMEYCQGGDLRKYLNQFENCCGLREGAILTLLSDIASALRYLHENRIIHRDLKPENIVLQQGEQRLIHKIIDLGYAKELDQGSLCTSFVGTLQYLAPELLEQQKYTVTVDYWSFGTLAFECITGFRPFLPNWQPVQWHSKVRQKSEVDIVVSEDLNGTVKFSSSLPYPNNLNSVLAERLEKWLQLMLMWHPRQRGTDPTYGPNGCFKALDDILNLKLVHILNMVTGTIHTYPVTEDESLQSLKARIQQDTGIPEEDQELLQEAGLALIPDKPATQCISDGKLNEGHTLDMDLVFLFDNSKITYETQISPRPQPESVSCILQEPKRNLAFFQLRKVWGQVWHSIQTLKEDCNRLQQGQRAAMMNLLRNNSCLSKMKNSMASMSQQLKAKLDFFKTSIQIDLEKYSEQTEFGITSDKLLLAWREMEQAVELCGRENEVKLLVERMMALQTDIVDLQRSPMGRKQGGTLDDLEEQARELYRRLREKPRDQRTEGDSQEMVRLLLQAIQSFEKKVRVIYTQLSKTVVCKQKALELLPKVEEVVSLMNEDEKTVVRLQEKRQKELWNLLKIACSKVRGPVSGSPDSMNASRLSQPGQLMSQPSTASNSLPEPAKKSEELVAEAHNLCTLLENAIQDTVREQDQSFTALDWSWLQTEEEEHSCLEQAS
- Sequence (O15111 whole entry): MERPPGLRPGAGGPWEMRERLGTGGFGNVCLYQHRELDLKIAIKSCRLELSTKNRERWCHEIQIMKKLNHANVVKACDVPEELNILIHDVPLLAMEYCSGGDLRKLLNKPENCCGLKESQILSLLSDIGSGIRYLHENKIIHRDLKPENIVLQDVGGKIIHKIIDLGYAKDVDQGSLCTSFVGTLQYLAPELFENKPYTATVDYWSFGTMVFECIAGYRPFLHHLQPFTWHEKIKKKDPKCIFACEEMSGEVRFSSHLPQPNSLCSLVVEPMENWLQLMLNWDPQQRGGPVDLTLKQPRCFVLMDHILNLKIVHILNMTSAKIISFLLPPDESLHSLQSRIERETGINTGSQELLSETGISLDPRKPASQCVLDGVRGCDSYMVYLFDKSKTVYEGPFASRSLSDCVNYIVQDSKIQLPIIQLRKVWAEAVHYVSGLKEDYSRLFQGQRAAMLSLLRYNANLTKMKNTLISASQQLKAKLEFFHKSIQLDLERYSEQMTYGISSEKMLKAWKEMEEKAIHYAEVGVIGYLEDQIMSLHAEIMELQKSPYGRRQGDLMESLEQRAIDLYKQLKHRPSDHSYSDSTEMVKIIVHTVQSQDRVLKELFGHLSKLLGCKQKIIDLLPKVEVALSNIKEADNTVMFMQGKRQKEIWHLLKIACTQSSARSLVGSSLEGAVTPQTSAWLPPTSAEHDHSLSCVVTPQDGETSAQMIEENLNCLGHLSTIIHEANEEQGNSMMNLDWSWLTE
- Sequence (Q9Y6K9 whole entry partner): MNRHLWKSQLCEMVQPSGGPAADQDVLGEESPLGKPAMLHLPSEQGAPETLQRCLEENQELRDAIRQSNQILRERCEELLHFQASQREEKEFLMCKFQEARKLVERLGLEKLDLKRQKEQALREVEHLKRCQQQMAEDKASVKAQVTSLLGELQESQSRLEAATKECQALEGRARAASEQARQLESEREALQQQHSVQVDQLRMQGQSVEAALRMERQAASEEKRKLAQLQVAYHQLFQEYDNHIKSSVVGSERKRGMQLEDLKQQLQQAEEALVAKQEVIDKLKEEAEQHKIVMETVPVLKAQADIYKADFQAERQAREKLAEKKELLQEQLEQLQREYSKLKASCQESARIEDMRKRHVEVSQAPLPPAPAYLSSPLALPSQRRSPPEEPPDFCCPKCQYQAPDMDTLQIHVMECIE
- PROTOCOL DESCRIPTION: IkB-Kinase ELISA;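 also: substrate phosphopeptide captured on Protein-A plates, detected with Streptavidin-HRP and TMB absorbance at 450 nm, activity read from a synthetic phosphopeptide standard curve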
- Format: biochemical
- MEASUREMENT CONTEXT: activated IκBα kinase complex from HeLa S3 cell extracts; ELISA; read-out: IkB-kinase IC50
Where a name gives a salt, the structure may show the parent alone.
ASSAY METRIC: log10 IC50 (log10 of the value in nM)
On a log10 scale: recorded IC50, unit nM.

{"columns": ["COMPOUND", "log10 IC50"],
 "data": [
  ["O=C(Nc1cc(Cl)cc2c1[nH]c1cnccc12)c1ccc(Cl)nc1", 1.78],
  ["Oc1c(Cl)cc2c([nH]c3cnccc32)c1Cl", 4.04],
  ["O=C(Cc1cccnc1)Nc1cc(Cl)cc2c1[nH]c1cnccc12", 2.84],
  ["COc1ccc(C(=O)Nc2cc(Cl)cc3c2[nH]c2cnccc23)cc1", 3.15],
  ["CCOC(=O)Cn1c2ccc(Cl)cc2c2ccncc21", 4.36]
]}

Which log10 IC50 reading was recorded for the compound O=C(N1CCOCC1)n1c2ccc(Br)cc2c2ccncc21 ? 3.70

Repeat with COc1c(Cl)cc2c([nH]c3cnccc32)c1NC(=O)c1ccc(F)cc1 3.32

Repeat with O=C(Nc1cc(Cl)cc2c1[nH]c1cnccc12)c1cccnc1 1.72

Repeat with O=C(Nc1cc(Cl)cc2c1[nH]c1cnccc12)c1ccc(Br)cc1 2.81

Repeat with COc1ccc2c([nH]c3cnccc32)c1Cl [Example 36, trifluoroacetate] 3.15

Repeat with O=C1CC[C@@H](C(=O)Nc2cc(Cl)cc3c2[nH]c2cnccc23)N1 2.49

Repeat with O=C(Nc1cc(Cl)cc2c1[nH]c1cnccc12)c1cccc(=O)[nH]1 3.32

Repeat with CCOc1ccc2c(c1)[nH]c1c(C)nccc12 3.65

Repeat with CC(C)COc1c(Cl)cc2c([nH]c3cnccc32)c1Cl 2.30

Repeat with O=C(Nc1cc(Cl)cc2c1[nH]c1cnccc12)c1ccc(Cl)cc1 3.26

Repeat with COc1cccc(C(=O)Nc2cc(Cl)cc3c2[nH]c2cnccc23)c1 2.78

Repeat with Cc1nccc2c1[nH]c1ccc(Br)cc12 4.04

Repeat with Clc1cc2c([nH]c3cnccc32)c(Cl)c1OCC1CC1 [Example 64] 2.04

Repeat with COc1c(Cl)cc2c([nH]c3cnccc32)c1Cl [Example 37, trifluoroacetate] 2.18

Repeat with O=C(COCc1ccccc1)Nc1cc(Cl)cc2c1[nH]c1cnccc12 3.15

Repeat with CC(=O)Oc1ccc2c(c1)[nH]c1c(C)nccc12 4.60

Ref: patent US7348336B2
